experiment: physchem
reported.property: pKa

>>> val("O=C(O)CCc1cc2c(-c3ccccc3C(=O)O)c3ccc4cc(O)c(Cl)cc4c3oc-2cc1=O")
6.61
